- Procedure details: NCI Yeast Anticancer Drug Screen. Data for the mlh1 rad18 strain (AID 175)
- Condition info: S. cerevisiae mlh1 rad18 strain growth inhibition; at 50.0 µM; hits give high values
The panel holds about 79,000 compounds, 15% with a hit somewhere; the sample as a whole holds those more often. Calls of active or inactive are those of the source. Rule as the data show it: active = growth inhibition above about 70%; inactive = the rest.
Would you kindly list growth inhibition for each of these compounds?

Which growth inhibition is reported for this compound? "CCCN(CCC)S(=O)(=O)c1ccc(NC(=O)Oc2ccccc2OC)cc1" 22.3% (inactive)

Which growth inhibition is reported for this compound? CCOc1cn(C2OC(CO)C(O)C2O)c(=O)[nH]c1=O (stereo not given) 3.5% (inactive)

Which growth inhibition is reported for this compound? "Cc1ccc(S(=O)(=O)Nc2ccccc2-c2nc3c(Cl)ccc(Cl)c3c(=O)o2)cc1" 10.7% (inactive)

Which growth inhibition is reported for this compound? "Cc1cc(N(CCC#N)CCC#N)ccc1/C=C/C(=O)Nc1cccc(Cl)c1" 7.65% (inactive)

Which growth inhibition is reported for this compound? "CC1(C)CNC[C@@](C)(O)C(=O)NC(C)(C)CNC[C@@](C)(O)C(=O)N1" -9.2% (inactive)

Which growth inhibition is reported for this compound? "O/N=C/c1ccccc1O" 10.2% (inactive)

Which growth inhibition is reported for this compound? "CC(C)(C)C(=O)Oc1ccc[nH]c1=O" -2.1% (inactive)

Which growth inhibition is reported for this compound? CC(Sc1nc2ccccc2c(=O)[nH]1)c1ccccc1 (stereo not given) -6.7% (inactive)

Which growth inhibition is reported for this compound? "COc1cc2c(C)nc3c4cc5c(cc4ccc3c2cc1OC)OCO5" 1% (inactive)

Which growth inhibition is reported for this compound? O=C1OC(C2OC(=O)C(=O)C2C(=O)c2ccccc2Cl)C(C(=O)c2ccccc2Cl)C1=O (stereo not given) 53.5% (inactive)

Which growth inhibition is reported for this compound? "CON[N+]([O-])=NC(C)C" 21.8% (inactive)

Which growth inhibition is reported for this compound? "O=C(Nc1cccc2ccccc12)OCCBr" -7.4% (inactive)

Which growth inhibition is reported for this compound? "Cn1c(=O)cnc2c3ccccc3ccc21" 19.6% (inactive)

Which growth inhibition is reported for this compound? "c1ccc(-c2ccc3ncccc3c2)cc1" 2.3% (inactive)

Which growth inhibition is reported for this compound? "OCC1(c2ccccc2)CCNCC1" 26.6% (inactive)

Which growth inhibition is reported for this compound? "CCCCCCCC(=O)Oc1cccc(C)c1" 2.2% (inactive)

Which growth inhibition is reported for this compound? "Cc1ccn2c(-c3ccccc3)nnc2c1" -16% (inactive)

Which growth inhibition is reported for this compound? "CCCCOC(=O)c1ccc(NC(=O)Nc2ccc(SC)cc2)cc1" -13.1% (inactive)

Which growth inhibition is reported for this compound? "c1ccc2c(c1)nc1n2CC2(CS1)CSc1nc3ccccc3n1C2" -3.1% (inactive)

Which growth inhibition is reported for this compound? "O=C(c1ccccc1)c1ccc2cccc3c2c1CC3" 34.4% (inactive)

Which growth inhibition is reported for this compound? "C/C=C\c1ccc2oc(-c3ccc4c(c3)OCO4)c(C)c2c1" -11.3% (inactive)

Which growth inhibition is reported for this compound? "Nc1ccc(Br)cc1C(=O)O" -3.3% (inactive)

Which growth inhibition is reported for this compound? "O=C1CC2(CCN(Cc3ccccc3)CC2)C(=O)N1N1CCCCC1" 50.4% (inactive)

Which growth inhibition is reported for this compound? "CCN(CC)CCNC(=O)c1cn2c(ccc3sc4ccccc4c(=O)c32)n1" 28.8% (inactive)

Which growth inhibition is reported for this compound? "CC(=O)NNC(=S)/N=C\c1c(O)c2ccccc2oc1=O" -37.9% (inactive)

Which growth inhibition is reported for this compound? CCC(C(=O)O)c1cccc2c(C)ccc(C)c12 (stereo not given) 8.15% (inactive)

Which growth inhibition is reported for this compound? "OCC(CO)(CO)COCC(CO)(CO)CO" 13.1% (inactive)

Which growth inhibition is reported for this compound? "O=C1C=CC(=O)C1" -3.75% (inactive)

Which growth inhibition is reported for this compound? "Cc1ccc(Cc2nn(C)c(=O)n2N)cc1" -18.9% (inactive)

Which growth inhibition is reported for this compound? COC(=O)/C=C/c1cc(OC)c2c(c1)C(C(=O)OC)C(c1ccc(O)c(OC)c1)O2 (stereo not given) -8.95% (inactive)

Which growth inhibition is reported for this compound? "CN(C)c1c([O-])c(=[N+](C)C)c1=O" -45.9% (inactive)

Which growth inhibition is reported for this compound? "CC(C)=CCC/C(C)=C/COC(=O)N(c1ccccc1)c1ccccc1" -1.15% (inactive)

Which growth inhibition is reported for this compound? "Cc1ccc(S(=O)(=O)NNCCC#N)cc1" 7.75% (inactive)

Which growth inhibition is reported for this compound? COC1(OC)C(c2ccc(Cl)cc2)C(C#N)(C#N)C1(OC)OC (stereo not given) -7.45% (inactive)

Which growth inhibition is reported for this compound? "C/C(=N\O)c1sc(-n2nc(-c3ccccc3)cc2-c2ccccc2)nc1C" 19.3% (inactive)

Which growth inhibition is reported for this compound? "O=C(Nc1ccc(C(=O)O)cc1)Nc1nccs1" 43.7% (inactive)

Which growth inhibition is reported for this compound? "CC(=O)Nc1ccccc1OC(=O)c1ccccc1" -2.5% (inactive)

Which growth inhibition is reported for this compound? "Cc1cc(=O)n(-c2ccc([N+](=O)[O-])cc2)c(C)c1C(=O)O" -1.65% (inactive)

Which growth inhibition is reported for this compound? "CC1=NN(c2nc(N)nc(CCl)n2)C(C)(C)C1" -77.9% (inactive)

Which growth inhibition is reported for this compound? "C#CCOC(=O)c1ccc(C(=O)OCC#C)cc1" -20.7% (inactive)

----------
- Procedure details: NCI Yeast Anticancer Drug Screen. Data for the mec2-1 strain (AID 157)
- Condition info: S. cerevisiae mec2-1 strain, at 50.0 µM
- Description: Growth inhibition of yeast strains with defined genetic alterations is measured as a screen for potential anti-cancer activity. Selected strains with alterations in DNA damage repair or cell cycle control were exposed to compounds and growth inhibition was measured relative to vehicle treated controls. The strain used in this assay is mec2-1
The panel holds about 79,000 compounds, 15% with a hit somewhere; the sample as a whole holds those more often. Activity calls are given as the source filed them. Cut-off read from the data, not from the text of the source: active = growth inhibition above about 70%; inactive = the rest.
Returns: one label drawn from active, inactive

Which outcome was entered for the compound "CCOc1cccc(C=Nc2ccccc2SSc2ccccc2N=Cc2cccc(OCC)c2O)c1O" in this test? inactive

Which outcome was entered for the compound CCC(C)CCC(=O)C(C)C(=O)O (configuration not stated) in this test? inactive

Which outcome was entered for the compound CC1CC(c2ccccc2)Nc2nc3ccccc3n21 (configuration not stated) in this test? inactive

Which outcome was entered for the compound COc1ccc(OC(C)C(=O)O)cc1 (configuration not stated) in this test? inactive

Which outcome was entered for the compound "Nc1ccc(-c2ccc(N=C(/C=N/O)NO)cc2)cc1" in this test? inactive

Which outcome was entered for the compound "CSc1nc2c(c(=O)n(C)c(=O)n2C)n1C" in this test? inactive

Which outcome was entered for the compound CCC1(C)NC(=O)OC1=O (configuration not stated) in this test? inactive

Which outcome was entered for the compound "N#C/C(=C\NC(N)=S)C(=O)c1ccc2ccccc2c1" in this test? inactive

Which outcome was entered for the compound CC(=O)OCC(OC(C)=O)C1(O)CCC2C3CCC4=CC(=O)CCC4(C)C3CCC21C (configuration not stated) in this test? active

Which outcome was entered for the compound "CN(C)CCSC(=Nc1ccccc1)N1CCCCC1" in this test? inactive

Which outcome was entered for the compound "CNC(=O)N(c1ccccc1)C1CCCCC1" in this test? inactive

Which outcome was entered for the compound "CC(=O)CCn1c(=S)sc2ccccc21" in this test? inactive

Which outcome was entered for the compound "CCc1cccc(C)c1NC(=O)C1=C(C)NC(C)=C(C(=O)Nc2c(C)cccc2CC)C1c1ccc([N+](=O)[O-])cc1" in this test? inactive

Which outcome was entered for the compound "O=C(Nc1ccn(CCOC(=O)c2ccccc2)c(=O)n1)c1ccccc1" in this test? inactive

Which outcome was entered for the compound "CCCCN(CCCC)CC(=O)NC(N)=O" in this test? inactive

Which outcome was entered for the compound "CC(C)c1ccc(C(C)C)c(Cl)c1" in this test? inactive

Which outcome was entered for the compound "COc1ccc(/C=N/N2CCN(/N=C/c3ccc(OC)c(O)c3)CC2)cc1O" in this test? inactive

----------
- Procedure details: NCI Yeast Anticancer Drug Screen. Data for the sgs1 mgt1 strain (AID 161);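 also: 0% = growth of cultures given vehicle only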
- Condition info: S. cerevisiae sgs1 mgt1 strain, at 50.0 µM, hits give high values
The panel holds about 79,000 compounds, 15% with a hit somewhere; the sample as a whole holds those more often.
Would you kindly list growth inhibition for each of these compounds?
Provide only the numeric value, understood in %.

Which growth inhibition is reported for this compound? "CC1(c2cccc[n+]2Cc2ccccc2S(=O)(=O)[O-])OCCO1" -8.95

Which growth inhibition is reported for this compound? Cc1ccc(C)c(N=C2NC(=O)C(CC(=O)Nc3ccc(Cl)cc3Cl)S2)c1 (configuration not stated) -9.65

Which growth inhibition is reported for this compound? "C1CC2(C34CCC(CC3)C4)CCC1C2" 14.2

Which growth inhibition is reported for this compound? N#CCCN(CCC#N)c1ccc(/C=C2\CC(O)(c3ccccc3)N(c3ccc(Cl)cc3)C2=O)cc1 (configuration not stated) -23.7

Which growth inhibition is reported for this compound? "CN(C)/C=N/c1cc(=O)n(C)c(=O)n1C" 1.85

Which growth inhibition is reported for this compound? "Nc1cccc2cccc(N)c12" 41.5

Which growth inhibition is reported for this compound? "NC(=O)c1c[nH]c(=O)cc1O" 50.2
